# tested.on: RSV-F protein of RSV A Long virus (as carried by the live virus in the neutralisation assay) (human respiratory syncytial virus, …, UniProt P12568 26-574)
# assay.overview: cell-based or functional assay
Property: Absolute IC50, neutralizing RSV A Long (HEp-2 cells, indirect ELISA); scope: individual binders
observed.property: Absolute IC50, neutralizing RSV A Long (HEp-2 cells, indirect ELISA) (µg/mL)

INSERT INTO measurements (binder, result_unit, quantitative_result) VALUES
  ('R10-6A11QH (antibody, human IgG1, kappa, V domains shown, also called chimeric antibody of R10-6A11) VH: QVKLEESGPGILQPSQTLSLTCSFSGFSLSTSGMGVSWIRQPSGKGLEWLAHIYWDDDKNYNPSLKSRLTISKDTSRNQVFLKITSVDTADTATYYCARKIYYDYDYALDYWGQGTSVTVSS VL: DIVMTQAAFSNPVTLGTSASISCRSSKSLLHSNGITYLCWFLQKPGQSPQLLIYQMSNLASGVPDRFSGSGSGTDFTLRISRVEAEDVGVYYCAQNLELWTFGGGTKLEIKR', 'µg/mL', 0.0199),
  ('R18-11B1QH (antibody, human IgG1, kappa, V domains shown, also called chimeric antibody of R18-11B1) VH: EVQLEESGPELVKPGASVKISCKSSAQTFSGSWINWVKQRPGQGLEWIGRIFPGDGDTKYNMNFTGKATLTADKSSNTAYMHVSSLTSVDSAVYFCARYDGYYDIGYFDVWGAGTTVTVSS VL: DIVMTQTPASLAVSLGQRATISCRASASVDSYGNKFIHWYQQKPGQPPKLLISLASNLESGVPARFSGSGSRTDFTLTIDPVEADDAATYYCQQTNEDPWTFGGGTKLEIKR', 'µg/mL', 0.0432),
  ('R10-10B2QH (antibody, human IgG1, kappa, V domains shown, also called chimeric antibody of R10-10B2) VH: QVQLEESGAELVRSGASVKLSCTASGFNIKDYYIHWVKQRPEQGLEWIGWNDPENGDTEYAPKFQGKATMTADTSSNTVYLQLSSLTSEDSAVYFCKSFDSYLEYWGQGTSVTVSS VL: DIVMTQTTLSLPVNLGDQASISCRSSQSLVHTDGNTFLEWYLQRPGQSPKLLIYKVSIRFSGVPDRFSGSGSGTDFTLKISRVETEDLGVYYCFQGSHVPRTFGGGTKLEIKR', 'µg/mL', 0.214),
  ('R18-22D7QH (antibody, human IgG1, kappa, V domains shown, also called chimeric antibody of R18-22D7) VH: EVKLLESGGGLVQPGGSLKLSCAASGFDFSRYWMSWVRQAPGKGLEWIGEINPDSSTINYTPSLKDKFIISRDNAKNTLYLQMSKVRSEDTALYYCARRGGISYAMDYWGQGTSVTVSS VL: DIVITQDELSNPVTSGESVSISCRSSKSLLYKDGKTYLNWFLQRPGQSPQLLIYLMSTRASGVSDRFSGSGSGTDFTLEISRVKAEDVGVYYCQQLVEYPRTFGGGTKLEIKR', 'µg/mL', 0.0683);
